Task for the reader: assign each of the following variants its reported protein stability index.
B1: PTPRD (parent)
chain: MVHVARLLLLLLTFFLRTDAETPP

Variants of: B1
TEST_SUMMARY: protein stability index of a GFP-peptide fusion (GPS, HEK-293T) (PSI 1-6); higher = more stable;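 further: lentivirally expressed fusions sorted by FACS into six bins by GFP to DsRed ratio, PSI derived from sequencing read proportions per bin multiplied by bin number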
APPLIED_CONDITIONS: c terminus: a fixed tail appended

// for each variant in input: emit protein stability index
1. L10Q
2. P24Q
3. L10K
4. L9D
5. L9Q
6. L7I
7. V4Y
8. L10G

Found:
1. 1.57
2. 3.53
3. 2.83
4. 3.06
5. 1.8
6. 3.46
7. 1.52
8. 1.33

// for each variant in input: emit protein stability index
1. L12I
2. E21A
3. L8K
4. P23R
5. T18K
6. L9H

Found:
2.03
3.13
1.98
3.55
3.74
1.53

// for each variant in input: emit protein stability index
1. D19F
2. L8Y
3. T18F
4. L9N
5. L7H

Found:
3.69
3.46
3.28
1.58
2.1
